These data points were gathered from paper PMC10058949.

Assay: Biodistribution blocking experiment with 1000-fold excess of non-radiolabeled peptide
Type: in vivo, mice
Conditions: female, BALB/c nude, mouse, in vivo, iv, total radioactivity, uptake in femur, blocking

[
  {
    "Compound": "CCCC[C@@H](C(=O)N[C@@H](CC(=O)O)C(=O)N[C@@H](Cc1cccc2ccccc12)C(N)=O)N(C)C(=O)[C@H](Cc1c[nH]c2ccccc12)NC(=O)CCNC(=O)CC(O)CNC(=O)CC(O)CNC(=O)CN1CCN(CC(=O)O)CCN(CC(=O)O)CCN(CC(=O)O)CC1 (stereo partly shown) [[^177Lu]Lu-2, metal not drawn]",
    "tissue uptake at 4 h / %ID/g": 0.09
  }
]
